# key: entry, value: pIC50
STUDY_TARGET: full length AKT E17K (Homo sapiens, UniProt P31749, E17K)
Construct: host or cells: HEK-293 (ATCC CRL-1573)
Sequence (P31749 whole entry E17K): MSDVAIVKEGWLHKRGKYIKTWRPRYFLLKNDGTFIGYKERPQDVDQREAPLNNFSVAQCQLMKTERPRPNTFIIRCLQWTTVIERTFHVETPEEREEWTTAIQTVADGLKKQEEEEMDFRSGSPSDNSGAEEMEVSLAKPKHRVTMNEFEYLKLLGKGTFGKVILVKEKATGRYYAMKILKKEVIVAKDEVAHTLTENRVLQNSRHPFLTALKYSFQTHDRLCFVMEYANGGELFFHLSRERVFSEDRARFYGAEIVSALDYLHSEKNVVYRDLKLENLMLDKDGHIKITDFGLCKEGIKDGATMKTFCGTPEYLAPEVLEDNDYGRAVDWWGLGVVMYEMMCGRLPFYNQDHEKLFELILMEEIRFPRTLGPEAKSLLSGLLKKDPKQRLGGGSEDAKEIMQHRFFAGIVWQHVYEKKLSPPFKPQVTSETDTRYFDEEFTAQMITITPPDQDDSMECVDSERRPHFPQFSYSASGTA
TEST_NAME: NanoBRET Target Engagement (TE) Assay
Format: cell-based
RECORDED_CONDITIONS: competitive tracer displacement in living cells, read-out: AKT1 E17K IC50
pIC50: −log10 of the molar value.

pIC50 for N#Cc1ccnc(N2CCN(Cc3ccc(-n4c(-c5cccnc5N)nc5ccc(-c6ccccc6)nc54)cc3)CC2)c1 ? 5.00 to 6.22

pIC50 for N#Cc1ccnc(NC2CCN(Cc3ccc(-n4c(-c5cccnc5N)nc5ccc(-c6ccccc6F)nc54)cc3)CC2)n1 ? > 7.82

pIC50 for C[C@H]1CN(Cc2ccc(-n3c(-c4cccnc4N)nc4ccc(-c5ccccc5)nc43)cc2)CCN1c1ccnc(C#N)n1 ? 7.22 to 7.82

pIC50 for C[C@H]1CN(Cc2ccc(-n3c(-c4cccnc4N)nc4ccc(-c5ccccc5)nc43)cc2)C[C@H](C)N1c1nccc(C#N)n1 ? 6.22 to 7.22

---

# key: entry, value: IC50
STUDY_TARGET: full length AKT E17K (Homo sapiens, UniProt P31749, E17K)
Construct: host or cells: HEK-293 (ATCC CRL-1573)
TEST_NAME: NanoBRET Target Engagement (TE) Assay
Assay type: cell-based
RECORDED_CONDITIONS: competitive displacement of tracer in cells, read-out: AKT1 E17K IC50

COMPOUND_STRUCTURE | IC50
N#Cc1ccc2c(c1)nc(-c1cccnc1N)n2-c1ccc(CN2CCC(Nc3ccnc(C#N)n3)CC2)cc1 | 15 to 60 nM

IC50 for N#Cc1nccc(NC2CCN(Cc3ccc(-n4c(-c5cccnc5N)nc5ccc(-c6cccnc6F)nc54)cc3)CC2)n1 ? < 15 nM

IC50 for N#Cc1nccc(NC2CCN(Cc3ccc(-n4c(-c5cccnc5N)nc5ccc(N6CCNC(=O)CC6)nc54)cc3)CC2)n1 ? 600 to 10000 nM

---

# key: entry, value: pIC50
STUDY_TARGET: full length AKT E17K (Homo sapiens, UniProt P31749, E17K)
Construct: host or cells: HEK-293 (ATCC CRL-1573)
TEST_NAME: NanoBRET Target Engagement (TE) Assay
Format: cell-based
RECORDED_CONDITIONS: competitive tracer displacement in living cells, read-out: AKT1 E17K IC50
pIC50: −log10 of the molar value.

MOLECULE | STUDY_TARGET | PROPERTY_MEASURED | RESULT
N#Cc1cc(C(=O)NCc2ccc(-n3c(-c4cccnc4N)nc4cc(-c5ccccc5)cnc43)cc2)ccn1 [Example 169] | full length AKT E17K (Homo sapiens, UniProt P31749, E17K) | pIC50 | 6.22 to 7.22
N#Cc1ccc(C(=O)NCc2ccc(-n3c(-c4cccnc4N)nc4cccnc43)cc2)cn1 [Example 121] | full length AKT E17K (Homo sapiens, UniProt P31749, E17K) | pIC50 | 5.00 to 6.22
N#Cc1cnccc1C(=O)N1CCN(Cc2ccc(-n3c(-c4cccnc4N)nc4cccnc43)cc2)CC1 [Example 154] | full length AKT E17K (Homo sapiens, UniProt P31749, E17K) | pIC50 | 5.00 to 6.22

Attention now shifts to the item below.
pIC50 for N#Cc1ncnc(N2CCN(Cc3ccc(-n4c(-c5cccnc5N)nc5ccc(N6CCOCC6)nc54)cc3)CC2)n1 [Example 292] ? > 7.82

---

STUDY_TARGET: full length AKT E17K (Homo sapiens, UniProt P31749, E17K)
Construct: host or cells: HEK-293 (ATCC CRL-1573)
TEST_NAME: NanoBRET Target Engagement (TE) Assay
Type: cell-based
RECORDED_CONDITIONS: competitive displacement of tracer in cells, read-out: AKT1 E17K IC50
pIC50: −log10 of the molar value.
# key: entry, value: pIC50

Past entries and their recorded results:
COMPOUND_STRUCTURE | STUDY_TARGET | pIC50
N#Cc1nccc(N2C[C@H]3CN(Cc4ccc(-n5c(-c6cccnc6N)nc6ccc(-c7ccccc7)nc65)cc4)C[C@@H]3C2)n1 | full length AKT E17K (Homo sapiens, UniProt P31749, E17K) | > 7.82
[2H]C([2H])([2H])Oc1ccc(-c2ccc3nc(-c4cccnc4N)n(-c4ccc(CN5CCC(Nc6ccnc(C#N)n6)CC5)cc4)c3n2)nc1 | full length AKT E17K (Homo sapiens, UniProt P31749, E17K) | > 7.82
N#Cc1nccc(N2C[C@@H]3CN(Cc4ccc(-n5c(-c6cccnc6N)nc6ccc(-c7ccccc7)nc65)cc4)C[C@H]3C2)n1 | full length AKT E17K (Homo sapiens, UniProt P31749, E17K) | > 7.82
COc1ccc(-c2ccc3nc(-c4cccnc4N)n(-c4ccc(CN5CCC(Nc6ccnc(C#N)n6)CC5)cc4)c3n2)cn1 | full length AKT E17K (Homo sapiens, UniProt P31749, E17K) | > 7.82
Cc1oncc1-c1ccc2nc(-c3cccnc3N)n(-c3ccc(CN4CCC(Nc5ccnc(C#N)n5)CC4)cc3)c2n1 | full length AKT E17K (Homo sapiens, UniProt P31749, E17K) | > 7.82
N#Cc1nccc(NC2CCN(Cc3ccc(-n4c(-c5cccnc5N)nc5ccc(-c6ccc(C(F)F)cn6)nc54)cc3)CC2)n1 | full length AKT E17K (Homo sapiens, UniProt P31749, E17K) | > 7.82
N#Cc1nccc(NC2CCN(Cc3ccc(-n4c(-c5cccnc5N)nc5ccc(-c6ccc(C(F)(F)F)nc6)nc54)cc3)CC2)n1 | full length AKT E17K (Homo sapiens, UniProt P31749, E17K) | > 7.82
[2H]C([2H])(F)Oc1ccc(-c2ccc3nc(-c4nccnc4N)n(-c4ccc(CN5CCC(Nc6ccnc(C#N)n6)CC5)cc4)c3n2)cn1 | full length AKT E17K (Homo sapiens, UniProt P31749, E17K) | > 7.82
N#Cc1nccc(NC2CCN(Cc3ccc(-n4c(-c5cccnc5N)nc5ccc(-c6ccc(C(F)(F)F)cn6)nc54)cc3)CC2)n1 | full length AKT E17K (Homo sapiens, UniProt P31749, E17K) | 7.22 to 7.82
N#Cc1nccc(NC2CCN(Cc3ccc(-n4c(-c5cccnc5N)nc5nc(C#N)c(C#N)nc54)cc3)CC2)n1 | full length AKT E17K (Homo sapiens, UniProt P31749, E17K) | 5.00 to 6.22

What value of pIC50 on full length AKT E17K (Homo sapiens, UniProt P31749, E17K) does Cc1cc2nc(-c3cccnc3N)n(-c3ccc(CN4CCC(Nc5ccnc(C#N)n5)CC4)cc3)c2nc1C#N have? > 7.82

What value of pIC50 on full length AKT E17K (Homo sapiens, UniProt P31749, E17K) does N#Cc1nccc(NC2CCN(Cc3ccc(-n4c(-c5cccnc5N)nc5ccc(-c6ccc(F)cc6C(N)=O)nc54)cc3)CC2)n1 have? 5.00 to 6.22

What value of pIC50 on full length AKT E17K (Homo sapiens, UniProt P31749, E17K) does N#Cc1nccc(NC2CC3(CCN(Cc4ccc(-n5c(-c6cccnc6N)nc6ccc(-c7ccc(F)cc7)nc65)cc4)CC3)C2)n1 have? 7.22 to 7.82

---

STUDY_TARGET: full length AKT E17K (Homo sapiens, UniProt P31749, E17K)
Construct: host or cells: HEK-293 (ATCC CRL-1573)
TEST_NAME: NanoBRET Target Engagement (TE) Assay
Format: cell-based
RECORDED_CONDITIONS: competitive displacement of tracer in cells, read-out: AKT1 E17K IC50
PROPERTY_MEASURED: IC50

IC50 for N#Cc1nccc(NC2CCN(Cc3ccc(-n4c(-c5cccnc5N)nc5ccc(-n6nccn6)nc54)cc3)CC2)n1 ? < 15 nM

IC50 for N#Cc1ncnc(NC2CCN(Cc3ccc(-n4c(-c5cccnc5N)nc5ccc(-c6ccc(F)cc6)nc54)cc3)CC2)n1 ? < 15 nM

IC50 for N#Cc1nccc(NC2CCN(Cc3ccc(-n4c(-c5nccnc5N)nc5ccc(-c6cnn(CF)n6)nc54)cc3)CC2)n1 ? < 15 nM

IC50 for N#Cc1ccnc(N2CCN(Cc3ccc(-n4c(-c5cccnc5N)nc5ccc(-c6ccccc6C#N)nc54)cc3)CC2)n1 ? 15 to 60 nM

IC50 for N#Cc1nccc(NC2CCN(Cc3ccc(-n4c(-c5cccnc5N)nc5ccc(-c6ccc(=O)n(CF)c6)nc54)cc3)CC2)n1 ? 15 to 60 nM

IC50 for N#Cc1nccc(NC2CCN(Cc3ccc(-n4c(-c5cccnc5N)nc5ccc(-c6ccc(C(F)(F)F)cc6)nc54)cc3)CC2)n1 ? 15 to 60 nM

IC50 for CCOc1ccc(-c2ccc3nc(-c4cccnc4N)n(-c4ccc(CN5CCC(Nc6ccnc(C#N)n6)CC5)cc4)c3n2)cn1 ? < 15 nM

IC50 for N#Cc1nccc(NC2CCN(Cc3ccc(-n4c(-c5cccnc5N)nc5ccc(-c6ccccc6C(F)(F)F)nc54)cc3)CC2)n1 ? 60 to 600 nM

IC50 for N#Cc1ccc(-c2ccc3nc(-c4cccnc4N)n(-c4ccc(CN5CCN(c6nccc(C#N)n6)CC5)cc4)c3n2)cc1 ? 60 to 600 nM

IC50 for N#Cc1nccc(NC2CCN(Cc3ccc(-n4c(-c5cccnc5N)nc5ccc(Cl)nc54)cc3)CC2)n1 ? < 15 nM

IC50 for [2H]C([2H])(c1ccc(-n2c(-c3cccnc3N)nc3ccc(Br)nc32)cc1)N1CCC(Nc2ccnc(C#N)n2)CC1 ? < 15 nM

IC50 for N#Cc1nccc(NC2CCN(Cc3ccc(-n4c(-c5cccnc5N)nc5ccc(-c6cnn(CF)n6)nc54)cc3)CC2)n1 ? < 15 nM

IC50 for N#Cc1nccc(NC2CN(Cc3ccc(-n4c(-c5cccnc5N)nc5ccc(-c6ccc(F)cc6)nc54)cc3)C2)n1 ? < 15 nM

IC50 for CNC(=O)c1ccc2nc(-c3cccnc3N)n(-c3ccc(CN4CCC(Nc5ccnc(C#N)n5)CC4)cc3)c2n1 ? < 15 nM

// provenance: patent US12209087B2
